Measured EC50 values are reported for all entries that follow.
- System: Respiratory syncytial virus
- EXPERIMENTAL_DETAILS: Antiviral activity against RSV infected in human Hep2 cells assessed as virus-induced cytopathic effect administered 3 hrs postinfection
- Type: functional, organism-based
- CONDITION_PARAMETERS: HEp-2, 3 h

CC(=O)OC[C@H]1O[C@@H](OCCc2ccc(O)c(O)c2)[C@H](O[C@@H]2OC[C@](O)(CO)[C@@H]2O)[C@@H](O[C@@H]2O[C@@H](C)[C@H](O)[C@@H](O)[C@H]2O)[C@@H]1OC(=O)/C=C/c1ccc(O)c(O)c1 [LUTEOSIDE A] ... 11 µg/mL

**Query** Provide value of EC50 for this record tested with Respiratory syncytial virus: COc1cc(/C=C/C(=O)OC[C@H]2O[C@@H](OCCc3ccc(O)c(O)c3)[C@H](O[C@@H]3OC[C@](O)(CO)[C@@H]3O)[C@@H](O[C@@H]3O[C@@H](C)[C@H](O)[C@@H](O)[C@H]3O)[C@@H]2O)ccc1O [LUTEOSIDE C]
**Result** 12 µg/mL

**Query** Identify the measured EC50 of C[C@@H]1O[C@@H](O[C@@H]2[C@@H](O)[C@H](OCCc3ccc(O)c(O)c3)O[C@H](COC(=O)/C=C/c3ccc(O)c(O)c3)[C@H]2O)[C@H](O)[C@H](O)[C@H]1O [ISOACTEOSIDE] for Respiratory syncytial virus.
**Result** 0.17 µg/mL

**Query** GET /values?readout=EC50&system=Respiratory syncytial virus&item= NC(=O)c1ncn([C@@H]2O[C@H](CO)[C@@H](O)[C@H]2O)n1 [RIBAVIRIN]
**Result** 2.3 µg/mL

**Query** What EC50 appears in the records for this molecule with Respiratory syncytial virus? C[C@@H]1O[C@@H](O[C@H]2[C@H](O)[C@@H](COC(=O)/C=C/c3ccc(O)c(O)c3)O[C@@H](OCCc3ccc(O)c(O)c3)[C@@H]2O[C@@H]2OC[C@](O)(CO)[C@@H]2O)[C@H](O)[C@H](O)[C@H]1O [LUTEOSIDE B]
**Result** 0.23 µg/mL

**Query** Give Respiratory syncytial virus EC50 for C[C@@H]1O[C@@H](O[C@@H]2[C@@H](O)[C@H](OCCc3ccc(O)c(O)c3)O[C@H](CO)[C@H]2OC(=O)/C=C/c2ccc(O)c(O)c2)[C@H](O)[C@H](O)[C@H]1O [ACETOSIDE]
**Result** 0.26 µg/mL

====

- EXPERIMENTAL_DETAILS: Selectivity index, […] for human Hep2 cells administered 3 hrs after infection
- Format: functional, HEp-2
MEASURED_ATTRIBUTE: Ratio IC50/EC50
Reply with the value as a number alone.

Look over these answered cases.
CC(=O)OC[C@H]1O[C@@H](OCCc2ccc(O)c(O)c2)[C@H](O[C@@H]2OC[C@](O)(CO)[C@@H]2O)[C@@H](O[C@@H]2O[C@@H](C)[C@H](O)[C@@H](O)[C@H]2O)[C@@H]1OC(=O)/C=C/c1ccc(O)c(O)c1 [LUTEOSIDE A] ... 16
NC(=O)c1ncn([C@@H]2O[C@H](CO)[C@@H](O)[C@H]2O)n1 [RIBAVIRIN] ... 10.8
C[C@@H]1O[C@@H](O[C@@H]2[C@@H](O)[C@H](OCCc3ccc(O)c(O)c3)O[C@H](CO)[C@H]2OC(=O)/C=C/c2ccc(O)c(O)c2)[C@H](O)[C@H](O)[C@H]1O [ACETOSIDE] ... 415
C[C@@H]1O[C@@H](O[C@H]2[C@H](O)[C@@H](COC(=O)/C=C/c3ccc(O)c(O)c3)O[C@@H](OCCc3ccc(O)c(O)c3)[C@@H]2O[C@@H]2OC[C@](O)(CO)[C@@H]2O)[C@H](O)[C@H](O)[C@H]1O [LUTEOSIDE B] ... 780

**Query** Value lookup for Ratio IC50/EC50; key = C[C@@H]1O[C@@H](O[C@@H]2[C@@H](O)[C@H](OCCc3ccc(O)c(O)c3)O[C@H](COC(=O)/C=C/c3ccc(O)c(O)c3)[C@H]2O)[C@H](O)[C@H](O)[C@H]1O [ISOACTEOSIDE]
**Result** 735
